# subject of test: T1, EsCas13d, nuclease-dead (Eubacterium siraeum, UniProt B0MS50, R295A;H300A;R849A;H854A)
# T1 sequence: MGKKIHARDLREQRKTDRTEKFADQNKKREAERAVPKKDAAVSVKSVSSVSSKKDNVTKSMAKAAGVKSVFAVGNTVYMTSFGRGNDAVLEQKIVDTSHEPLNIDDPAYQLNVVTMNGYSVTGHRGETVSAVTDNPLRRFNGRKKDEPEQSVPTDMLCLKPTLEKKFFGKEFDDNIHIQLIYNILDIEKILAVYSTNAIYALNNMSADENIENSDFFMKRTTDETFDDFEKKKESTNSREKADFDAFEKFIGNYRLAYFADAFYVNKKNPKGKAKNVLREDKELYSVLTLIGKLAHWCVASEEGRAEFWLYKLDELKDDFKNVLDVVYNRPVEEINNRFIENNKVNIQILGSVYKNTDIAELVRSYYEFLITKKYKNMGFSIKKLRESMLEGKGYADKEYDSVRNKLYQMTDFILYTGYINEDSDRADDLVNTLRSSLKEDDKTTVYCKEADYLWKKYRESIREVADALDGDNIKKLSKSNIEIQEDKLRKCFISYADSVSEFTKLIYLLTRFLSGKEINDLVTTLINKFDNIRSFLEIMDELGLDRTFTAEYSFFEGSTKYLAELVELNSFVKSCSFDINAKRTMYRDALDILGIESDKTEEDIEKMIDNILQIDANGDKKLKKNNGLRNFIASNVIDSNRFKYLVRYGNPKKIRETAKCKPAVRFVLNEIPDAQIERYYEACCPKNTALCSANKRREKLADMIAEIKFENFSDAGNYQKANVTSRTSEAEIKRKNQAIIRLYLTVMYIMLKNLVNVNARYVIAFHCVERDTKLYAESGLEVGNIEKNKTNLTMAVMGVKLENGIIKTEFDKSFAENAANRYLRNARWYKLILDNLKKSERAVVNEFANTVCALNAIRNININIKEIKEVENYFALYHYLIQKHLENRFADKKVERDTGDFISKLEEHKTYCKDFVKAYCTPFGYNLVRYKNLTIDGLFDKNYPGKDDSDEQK
# experimental details: crRNA (strand 1, pre-loaded); Mg2+; 40 mM Tris-HCl pH 7.5, 150 mM NaCl, 6 mM MgCl2, 1 mM DTT, 0.1% Tween-20, 0.2 mg/ml BSA; 25 C; 10 min per concentration, then washed
# test context: tags: His6-TwinStrep-SUMO cleaved; N-terminal SNAP kept (SNAP-Surface 488); label: 3' end held by stalled T7 RNA polymerase
readout label: pKd
// pKd here means minus log10 of the molar concentration (mol/L)

I would be grateful if you could share the reported pKd for target 2 MT 5'PFS CAG 3'PFS CUC (mixed) RNA 1: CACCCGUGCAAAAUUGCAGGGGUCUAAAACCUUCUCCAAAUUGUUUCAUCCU RNA 2: GGGAAUGGAUCCACAUCUACGAAUUCCAGAGGAUGAAACAAUUUGGAGAAGCUCAGAUCGGAAGAGCACACGU . 8.19

I would be grateful if you could share the reported pKd for target 2 MT 5'PFS UUC 3'PFS UCC (mixed) RNA 1: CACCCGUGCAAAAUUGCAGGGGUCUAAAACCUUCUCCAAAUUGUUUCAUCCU RNA 2: GGGAAUGGAUCCACAUCUACGAAUUCUUCAGGAUGAAACAAUUUGGAGAAGUCCAGAUCGGAAGAGCACACGU . 7.71

I would be grateful if you could share the reported pKd for target 3 G4U,U22A (mixed) RNA 1: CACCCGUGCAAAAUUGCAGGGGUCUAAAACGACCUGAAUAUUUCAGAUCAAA RNA 2: GGGAAUGGAUCCACAUCUACGAAUUCGUUAUUGAUCUGAAAUAUUCAUGUCUGCAGAUCGGAAGAGCACACGU . 8.35
